- Target entity: CYP 2C9 (Homo sapiens, UniProt P11712)
- Construct: from tissue; host or cells: pooled human liver microsomes (per the earlier reading)
- Sequence (P11712 whole entry): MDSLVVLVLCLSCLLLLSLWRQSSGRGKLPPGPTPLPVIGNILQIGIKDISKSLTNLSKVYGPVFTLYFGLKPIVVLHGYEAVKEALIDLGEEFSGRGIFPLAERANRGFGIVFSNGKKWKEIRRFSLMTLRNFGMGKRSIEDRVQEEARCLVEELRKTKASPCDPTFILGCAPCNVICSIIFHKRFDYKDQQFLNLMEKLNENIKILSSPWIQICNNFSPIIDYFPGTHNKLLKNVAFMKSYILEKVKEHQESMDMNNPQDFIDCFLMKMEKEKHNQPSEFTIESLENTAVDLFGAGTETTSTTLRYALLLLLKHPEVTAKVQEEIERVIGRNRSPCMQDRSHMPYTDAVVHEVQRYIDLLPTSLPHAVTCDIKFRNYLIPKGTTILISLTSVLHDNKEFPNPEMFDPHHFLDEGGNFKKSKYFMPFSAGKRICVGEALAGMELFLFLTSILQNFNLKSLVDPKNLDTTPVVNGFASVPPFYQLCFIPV
- Procedure details: P450 inhibition in pooled human liver microsomes
- Assay type: in vitro ADME
- Experimental setup: pooled HLM, NADPH, CYP-specific probe substrates; listed as VU6043653

{"Compound": "Cc1cc(Oc2cnn(C)c2)cc(C(=O)Nc2ccc(F)cn2)n1 [22iA]", "IC50": "≥ 30 µM"}

###

- Procedure details: Binding in plasma from human (equilibrium dialysis)
- Assay type: in vitro ADME
- Experimental setup: human, plasma, read-out: Human fu,plasma
Label scheme for fraction unbound at 6 h, 5 µM: lower than 0.06 is Criterion not met, 0.06 and above is Criterion met.

{"Molecule": "Cc1cc(Oc2cnn(C)c2)cc(C(=O)Nc2nc(C)cs2)n1 [22iB]", "Category label": "Criterion met"}
{"Molecule": "Cc1cccc(NC(=O)c2cc(Oc3cnn(C)c3)cc(C)n2)n1 [22iC]", "Category label": "Criterion not met"}
{"Molecule": "Cc1cccc(NC(=O)c2cc(Oc3cnn(C)c3C(F)(F)F)cc(C)n2)n1 [22gC]", "Category label": "Criterion not met"}
{"Molecule": "Cc1cccc(NC(=O)c2cc(Oc3cc(C)nn3C)cc(C)n2)n1 [22fC]", "Category label": "Criterion not met"}
